- experiment_notes: Clearance in cynomolgus monkey at 0.5 mg/kg, iv by LC-MS/MS analysis
- Format: ADME, organism-based, Macaca fascicularis
- experimental_parameters: in vivo
measured_attribute: clearance (mL/min/kg)
Give the number; mL/min/kg is assumed, so skip it.

Record `COc1ccc(C[C@@H]2NC(=O)[C@H]([C@@H](C)O)NC(=O)[C@@H]3CCCN3C(=O)[C@@H]3Cc4cn(c5ccc(F)cc45)Cc4cn(nn4)-c4cc(cc(c4)CSCCC(=O)N[C@@H](C)C(=O)N[C@H](C)C(=O)N[C@@H](Cc4c[nH]c5ccc(F)cc45)C(=O)N3)CSCCNC(=O)[C@]3(C)CCCN3C2=O)cc1` . Reported clearance: 20.1
